Entry source: PubChem BioAssay AID2060897

Recorded viability, T/C values for a group of molecules are listed next.
tested on: 966289-007-R4-J1-PDC complex spheroid viability; experiment: Anticancer human tumor 966289-007-R4-J1-PDC patient-derived pancreatic adenocarcinoma cell line growth inhibition [RAS]; settings: second compound 0.0949 µM; first compound 3.16 µM; stronger effect = lower value;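 note: spheroids exposed to agents for one week before readout; percent viability relative to DMSO vehicle control wells as 100%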
Field format: number, assumed %, no unit text.

# example entries with known answers
molecule	viability, T/C / %
C[C@@H](NC(=O)c1ncnc(N)c1Cl)c1ncc(C(=O)Nc2cc(C(F)(F)F)c(Cl)cn2)s1 + CCn1c(-c2cc(N3CCN(C)CC3)cnc2C(C)OC)c2c3cc(ccc31)-c1csc(n1)CC(NC(=O)C1CC1C)C(=O)N1CCCC(N1)C(=O)OCC(C)(C)C2	111
CC(=O)OC12COC1CC(O)C1(C)C(=O)C(O)C3=C(C)C(OC(=O)C(O)C(NC(=O)OC(C)(C)C)c4ccccc4)CC(O)(C(OC(=O)c4ccccc4)C21)C3(C)C (stereo not drawn) + CCn1c(-c2cc(N3CCN(C)CC3)cnc2C(C)OC)c2c3cc(ccc31)-c1csc(n1)CC(NC(=O)C1CC1C)C(=O)N1CCCC(N1)C(=O)OCC(C)(C)C2	51.7
Cc1nc(N2CCC3(CC2)COC(C)C3N)c(CO)nc1Sc1ccnc(N)c1Cl (stereo not drawn) + CCn1c(-c2cccnc2C(C)OC)c2c3cc(ccc31)N1CCOC(CC(NC(=O)C(C(C)C)N(C)C(=O)C3(F)CCN(C(=O)C#CC(C)(C)N(C)C)CC3)C(=O)N3CCCC(N3)C(=O)OCC(C)(C)C2)C1	106
CC1(O)CCCC1n1c(=O)c(C(F)F)cc2cnc(NC3CCN(S(C)(=O)=O)CC3)nc21 (stereo not drawn) + CCn1c(-c2cccnc2C(C)OC)c2c3cc(ccc31)N1CCOC(CC(NC(=O)C(C(C)C)N(C)C(=O)C3(F)CCN(C(=O)C#CC(C)(C)N(C)C)CC3)C(=O)N3CCCC(N3)C(=O)OCC(C)(C)C2)C1	26
NC1c2ccccc2OC12CCN(c1cnc3c(N4CCCc5ncccc54)n[nH]c3n1)CC2 (stereo not drawn) + CCn1c(-c2cccnc2C(C)OC)c2c3cc(ccc31)N1CCOC(CC(NC(=O)C(C(C)C)N(C)C(=O)C3(F)CCN(C(=O)C#CC(C)(C)N(C)C)CC3)C(=O)N3CCCC(N3)C(=O)OCC(C)(C)C2)C1	117

Data request, read-out viability, T/C, for CC1(O)CCCC1n1c(=O)c(C(F)F)cc2cnc(NC3CCN(S(C)(=O)=O)CC3)nc21 (stereo not drawn) + CCn1c(-c2cc(N3CCN(C)CC3)cnc2C(C)OC)c2c3cc(ccc31)-c1csc(n1)CC(NC(=O)C1CC1C)C(=O)N1CCCC(N1)C(=O)OCC(C)(C)C2 26.6

Data request, read-out viability, T/C, for CCC(CC)c1cc(NC2CCC(N)C2)n2nccc2n1 (stereo not drawn) + CCn1c(-c2cc(N3CCN(C)CC3)cnc2C(C)OC)c2c3cc(ccc31)-c1csc(n1)CC(NC(=O)C1CC1C)C(=O)N1CCCC(N1)C(=O)OCC(C)(C)C2 1.88

Data request, read-out viability, T/C, for CC(C)NCC(C(=O)N1CCN(c2ncnc3c2C(C)CC3O)CC1)c1ccc(Cl)cc1 (stereo not drawn) + CCn1c(-c2cc(N3CCN(C)CC3)cnc2C(C)OC)c2c3cc(ccc31)-c1csc(n1)CC(NC(=O)C1CC1C)C(=O)N1CCCC(N1)C(=O)OCC(C)(C)C2 47.9
